Test: TP_TRANSPORTER: drug resistance(Mitoxantrone) in BCRP-expressing K562 cells
readout: IC50 (nM)
Use nM as the unit, but write only the number.

smiles-repr: CC/C(=C(/CC)c1ccc(O)cc1)c1ccc(O)cc1
IC50 (nM): 500

Note: attention shifts to another entry.
Enquiry: Any idea what IC50 was measured for `CC/C(=C(/c1ccc(OCCN(C)C)cc1)c1ccc(OCc2ccc([N+](=O)[O-])cc2)cc1)c1ccccc1` ?
Return: 1500

---

Test: TP_TRANSPORTER: drug resistance(SN-38) in BCRP-expressing K562 cells
readout: IC50

Solved cases below.
smiles-repr: CC/C(=C(/c1ccc(OCCN(C)C)cc1)c1ccc(OCc2ccc([N+](=O)[O-])cc2)cc1)c1ccccc1
readout: IC50
measured-value: > 2 µM
--
smiles-repr: CCC(=O)Oc1ccc(/C(CC)=C(\CC)c2ccc(OC(=O)CC)cc2)cc1
readout: IC50
measured-value: > 3 µM
--
smiles-repr: CC/C(=C(/c1ccc(OCCN(C)C)cc1)c1ccc(OCc2ccccc2)cc1)c1ccccc1
readout: IC50
measured-value: > 2 µM

Note: attention shifts to another entry.
Enquiry: Any idea what IC50 was measured for `CC/C(=C(/CC)c1ccc(O)cc1)c1ccc(O)cc1` ?
Return: > 0.5 µM
